Measured melting point of individual entries

Look up and state reported melting point for COCOC(C(Cc1ccccc1)NC(=O)[C@@H](NC(=O)OCc1ccccc1)C(C)C)C(Cc1ccccc1)NC(=O)[C@@H](NC(=O)OCc1ccccc1)C(C)C (stereo partly specified)
197 to 198 °C

* * *

OBSERVATION TYPE: melting point

>  <COMPOUND>
Nc1ncc(-c2cnc3ccc(-c4ccc(OCC5(NC(=O)OCc6ccccc6)COC5)cc4)nn23)cc1C(F)(F)F

>  <RESULT>
202 to 203 °C

$$$$
>  <COMPOUND>
COc1cc2ccnc(N3CCN(c4ccc5c(c4)CCC(=O)N5)CC3)c2cc1OC

>  <RESULT>
235 to 240 °C

$$$$
>  <COMPOUND>
O=S(=O)(F)c1cc(Cl)c(Cl)cc1Cl

>  <RESULT>
80 to 83 °C

$$$$
>  <COMPOUND>
Fc1ccc2c(C3CCN(CC4=Cc5cc6c(cc54)OCO6)CC3)noc2c1

>  <RESULT>
125 to 126 °C

$$$$
>  <COMPOUND>
O=S(=O)(c1ccc(Cl)cc1)c1ccc(-c2ccc(O)cc2)cc1

>  <RESULT>
268 to 270 °C

$$$$

Look up and state reported melting point for CNC(=O)n1sc(Cc2ccccc2)nc1=O
146 °C

Look up and state reported melting point for O=C(NC1Cc2ccc([N+](=O)[O-])cc2C1)c1ccc(F)cc1 (stereo not drawn)
167 °C

Look up and state reported melting point for COC(=O)N(C)CCCCC(=O)OC[C@@H]1CC(c2ccc(-c3ccc(N4C[C@H](Cn5ccnn5)OC4=O)cc3F)cn2)=NO1
82 °C

* * *

OBSERVATION TYPE: melting point

Worked examples follow.
>  <COMPOUND>
NCCC(=O)NCCCCCNC(=O)Cc1cccc(O)c1

>  <RESULT>
109 to 115 °C

$$$$
>  <COMPOUND>
O=C1CCCC2=C1C(c1ccncc1)C1=C(CCS1)N2 (stereo not given)

>  <RESULT>
> 250 °C

$$$$
>  <COMPOUND>
Cc1cc(COc2ccc(S(=O)(=O)NC[C@@H](C(=O)NO)N3CCN(C(=O)OCc4ccccc4)CC3)cc2)c2ccccc2n1

>  <RESULT>
162 °C

$$$$

Look up and state reported melting point for Cc1nnc(-c2ccc3occ(-c4ccc(O)cc4)c3c2)o1
226 to 227 °C

Look up and state reported melting point for CCOC(=O)C(C(=O)OCC)C(=O)C1CCC2C3CCC4CC(O)CCC4(C)C3C(=O)CC12C (stereo not given)
116 to 117 °C

Look up and state reported melting point for CCN(c1cccc2cc(C3=NCCS3)[nH]c12)S(=O)(=O)c1cccs1
206 to 207 °C

Look up and state reported melting point for CCCOc1ccc(/C=C/c2nc3c([nH]2)c(=O)n(CCC)c(=O)n3CCC)cc1
248 to 249 °C

Look up and state reported melting point for O=C(Nc1nc(C(F)(F)F)co1)C1c2ccccc2Oc2ccc(Cl)cc21 (racemic)
235 °C

Look up and state reported melting point for O=[N+]([O-])c1ccc(NC2CC2)cc1
126 to 128 °C

Look up and state reported melting point for CN1Cc2c(C(N)=O)ncn2-c2cccc(Cl)c2C1=O
> 250 °C

* * *

Measured melting point of individual entries

Worked examples follow.
>  <MOLECULE>
COc1c2c(cc3ccccc13)C(=O)NC2=O

>  <RESULT>
216 to 220 °C

$$$$
>  <MOLECULE>
O=C(c1cc2c(cc1F)OC(c1ccccc1Cl)(c1ccccc1Cl)O2)N1CCOCC1

>  <RESULT>
98 °C

$$$$
>  <MOLECULE>
Cc1c(NC(=O)c2cc3c(s2)CCCC3)cccc1-c1cn(C)c(=O)c(Br)n1

>  <RESULT>
240 to 241 °C

$$$$
>  <MOLECULE>
Cc1nc(COc2ccc(Cn3cc(CCC(=O)O)c(-c4ccccc4)c3)cc2)cs1

>  <RESULT>
113 to 114 °C

$$$$
>  <MOLECULE>
CCNC(=O)N(C)C(=O)Nc1ccccc1

>  <RESULT>
80.5 to 81.5 °C

$$$$
>  <MOLECULE>
CCn1ncc2c(NCc3ccccc3)c3ccccc3nc21

>  <RESULT>
130 to 132 °C

$$$$

Look up and state reported melting point for O=C(O)c1cn(C2CC2)c2cc(N3CCN(C(=O)OCCn4cccn4)CC3)c(F)cc2c1=O
205 to 208 °C

Look up and state reported melting point for Nc1nc2c(s1)-c1c(cnn1-c1ccccc1)CC2
307 to 308 °C

Look up and state reported melting point for COc1cc(C=CC=O)ccc1OC(C)=O
83 to 86 °C

Look up and state reported melting point for COc1cccc(-c2nc(-c3ccccc3)c3ncc(-c4csc5ccccc45)cc3n2)c1
112 to 113 °C

Look up and state reported melting point for CC(=O)c1ccc(N2CCCCC2)c(S(N)(=O)=O)c1
130 to 132 °C

Look up and state reported melting point for Cc1c(NC(=O)N2CC[C@H](O[Si](C)(C)C(C)(C)C)[C@H]2CO)ccc(C#N)c1Cl
174 to 176 °C

Look up and state reported melting point for COc1ccccc1N1CCN(CCN(C(=O)C2CCCCC2)c2ccccc2N)CC1
138 to 140 °C

Look up and state reported melting point for NS(=O)(=O)c1ccc(-c2cccc(-c3nc(-c4ccc(C(F)(F)F)cc4)cc(C(F)(F)F)n3)c2)s1
204 °C

* * *

OBSERVATION TYPE: melting point

Worked examples follow.
>  <COMPOUND>
O=C(Cc1ccc(O)c([N+](=O)[O-])c1)N[C@H]1C[C@H](C(=O)O)Nc2cc(Cl)cc(Cl)c21 (relative stereo)

>  <RESULT>
245 to 247 °C

$$$$
>  <COMPOUND>
CCN(CC)C(=O)Cc1c(-c2ccc(C)cc2)nc2c(C)cc(C)nn12

>  <RESULT>
155 to 158 °C

$$$$
>  <COMPOUND>
COC(=O)[C@H](c1ccccc1Cl)N1CCc2sc(OC(=O)C=Cc3ccccc3)cc2C1

>  <RESULT>
122 to 124 °C

$$$$
>  <COMPOUND>
N#Cc1nc(SCc2cnn(-c3c(Cl)cc(C(F)(F)F)cc3Cl)n2)n(Cc2ccccc2)c1C#N

>  <RESULT>
132 °C

$$$$
>  <COMPOUND>
CC(=O)c1ccc(OCc2ccccc2)c(OC/C=C/CN2CCC(c3noc4cc(F)ccc34)CC2)c1

>  <RESULT>
124 to 125 °C

$$$$

Look up and state reported melting point for CC(C)(C)OC(=O)NCCc1ccnc(-c2nc(=O)c3ccccc3s2)c1
160 to 161 °C

Look up and state reported melting point for CCCNC(=O)c1nc(C)ccc1C(=O)Nc1cccc2ccccc12
175 to 178 °C

Look up and state reported melting point for O=C(O)CCCCOc1ccc2nc3[nH]c(=O)[nH]c3cc2c1
317 to 318 °C

Look up and state reported melting point for Cc1nc(N2CCN(Cc3cccc(F)c3)C2=O)sc1C(=O)NCc1ccccc1
155 to 156 °C

Look up and state reported melting point for OCCc1cccc2c(-c3ccccc3)c(Br)oc12
108 to 112 °C

Look up and state reported melting point for COCCOc1ccc(/C=C(\C)C(=O)O)c(Oc2ncc(Cl)cc2Cl)c1
126 to 127 °C

Look up and state reported melting point for CN1C(=O)C(NC(=O)Oc2ccc([N+](=O)[O-])cc2)N=C(c2ccccc2F)c2ccccc21 (stereo not drawn)
202 to 204 °C

Look up and state reported melting point for COc1c(CS(C)(=O)=O)cnc2ccccc12
151 to 154 °C

* * *

Measured melting point of individual entries

Worked examples follow.
>  <MOLECULE>
COC(=O)CCc1cc(C)c(OP(Oc2c(C)cc(CCC(=O)OC)cc2C(C)(C)C)Oc2c(C)cc(CCC(=O)OC)cc2C(C)(C)C)c(C(C)(C)C)c1

>  <melting point>
113 to 114 °C

$$$$
>  <MOLECULE>
COc1cc(COc2nn(Cc3ccccc3)cc2C(N)=O)ccc1OCc1nc(-c2ccco2)oc1C

>  <melting point>
160 to 161 °C

$$$$
>  <MOLECULE>
CCCCCCCCCCc1ccc2cc(OC)ccc2c1

>  <melting point>
48.6 to 49.3 °C

$$$$
>  <MOLECULE>
O=C(O)CNCCOc1cccc(CCNS(=O)(=O)c2ccc(Cl)cc2)c1

>  <melting point>
205 to 207 °C

$$$$
>  <MOLECULE>
O=C(O)CSc1c(C(=O)O)[nH]c2cc(Cl)cc(Cl)c12

>  <melting point>
152 to 153 °C

$$$$

Look up and state reported melting point for O=C(CC(=O)C(F)(F)F)Nc1cc(-c2ccsc2)n[nH]1
251 to 253 °C

Just for reference, a melting point compilation (Tetko et al.; mined from patent text by program, amines drawn as free bases though some values may be those of a salt) is where these values come from.
